assay: Effect on Wnt signaling pathway in human SW480 cells harbouring TCF/LEF luciferase reporter gene and SP5-Luc reporter gene incubated for 36 to 48 hrs by luminescence assay; type: cell-based
pEC50: −log10 of the molar value.
experimental-endpoint: pEC50

[[record]]
smiles_repr = "O=C(N[C@H]1C[C@@H]1c1ccccc1)c1n[nH]c2ccc(-c3cccnc3)cc12"
qualifier_operator = "="
reported_measurement = 5.86

[[record]]
smiles_repr = "O=C(Nc1c[nH]nc1-c1nc2c(-c3cccc(F)c3)cccc2[nH]1)c1cccnc1"
qualifier_operator = "="
reported_measurement = 8.54

[[record]]
smiles_repr = "O=C(Nc1cccnc1)c1n[nH]c2ccc(-c3cncc(CN4CC5CC(C4)O5)c3)cc12"
qualifier_operator = "="
reported_measurement = 7.17

[[record]]
smiles_repr = "CCC(=O)Nc1cncc(-c2ccc3[nH]nc(-c4nc5c(N6CCCCC6)cncc5[nH]4)c3n2)c1"
qualifier_operator = "<"
reported_measurement = 5.00

[[record]]
smiles_repr = "CCCCC(=O)Nc1cncc(-c2ccc3[nH]nc(-c4cc5c(-c6ccoc6)cncc5[nH]4)c3c2)c1"
qualifier_operator = "="
reported_measurement = 6.04

[[record]]
smiles_repr = "CC(C)(C)C(=O)Nc1cncc(-c2ccc3[nH]nc(-c4nc5c(-c6cccnc6)cncc5[nH]4)c3c2)c1"
qualifier_operator = "="
reported_measurement = 7.07

[[record]]
smiles_repr = "NC(=O)c1ccc(NC(=O)c2n[nH]c3ccc(-c4cncc(CN5CCCCC5)c4)cc23)cn1"
qualifier_operator = "="
reported_measurement = 7.89

[[record]]
smiles_repr = "c1cncc(-c2ccnc3[nH]c(-c4n[nH]c5ncc(-c6cncc(CN7CCCCC7)c6)cc45)cc23)c1"
qualifier_operator = "<"
reported_measurement = 5.00

[[record]]
smiles_repr = "CN(C)Cc1cncc(-c2cnc3[nH]nc(-c4cc5c(-c6ccccc6F)cncc5[nH]4)c3c2)c1"
qualifier_operator = "="
reported_measurement = 5.60


====

Reported pEC50 values for a set of compounds
target: UniProtKB Q13627; assay: Inhibition of recombinant DYRK1A (unknown origin) using Ser/Thr 18 peptide as substrate incubated for 1 hr in presence of ATP by FRET assay
pEC50: −log10 of the molar value.
experimental-endpoint: pEC50

[[record]]
smiles_repr = "CN1CCN(c2nccc3[nH]c(-c4n[nH]c5cnc(-c6cncc(NC(=O)c7ccccc7)c6)cc45)cc23)CC1"
experimental_endpoint = "pEC50"
reported_measurement = 8.40

[[record]]
smiles_repr = "CCNCc1cncc(-c2ccc3[nH]nc(-c4cc5cccnc5[nH]4)c3n2)c1"
experimental_endpoint = "pEC50"
reported_measurement = 7.54

[[record]]
smiles_repr = "CN(C)Cc1cncc(-c2cnc3[nH]nc(-c4nc5c(-c6ccsc6)cncc5[nH]4)c3c2)c1"
experimental_endpoint = "pEC50"
reported_measurement = 8.00

[[record]]
smiles_repr = "CCNCc1cncc(-c2cc3c(-c4cc5c(-c6ccccc6F)ccnc5[nH]4)n[nH]c3cn2)c1"
experimental_endpoint = "pEC50"
reported_measurement = 7.15

[[record]]
smiles_repr = "CCCC(=O)Nc1cncc(-c2ccc3[nH]nc(-c4cc5c(-c6ccncc6)cncc5[nH]4)c3c2)c1"
experimental_endpoint = "pEC50"
reported_measurement = 8.22


====

assay: Effect on Wnt signaling pathway in human SW480 cells harbouring TCF/LEF luciferase reporter gene and SP5-Luc reporter gene incubated for 36 to 48 hrs by luminescence assay; assay type: cell-based
pEC50: −log10 of the molar value.
experimental-endpoint: pEC50

[[record]]
smiles_repr = "Nc1ncc(NC(=O)c2n[nH]c3ccc(-c4cncc(CN5CCCCC5)c4)cc23)cn1"
experimental_endpoint = "pEC50"
qualifier_operator = "="
reported_measurement = 7.52

[[record]]
smiles_repr = "O=C(Nc1cc2cc(-c3cnco3)cnc2cn1)[C@H]1CC[C@H](CO)CC1"
experimental_endpoint = "pEC50"
qualifier_operator = "<"
reported_measurement = 5.00

[[record]]
smiles_repr = "Fc1ccc(-c2cccc3[nH]c(-c4n[nH]c5ccc(-c6cncnc6)nc45)nc23)cc1"
experimental_endpoint = "pEC50"
qualifier_operator = "<"
reported_measurement = 5.00

[[record]]
smiles_repr = "CC(C)C(=O)Nc1cncc(-c2cc3c(-c4cc5c(-c6cccc(F)c6)cncc5[nH]4)n[nH]c3cn2)c1"
experimental_endpoint = "pEC50"
qualifier_operator = "="
reported_measurement = 5.76

[[record]]
smiles_repr = "CCCCC(=O)Nc1cncc(-c2cc3c(-c4cc5c(-c6cc(F)cc(CNS(C)(=O)=O)c6)nccc5[nH]4)n[nH]c3cn2)c1"
experimental_endpoint = "pEC50"
qualifier_operator = "<"
reported_measurement = 5.00

[[record]]
smiles_repr = "CN(C)Cc1cncc(NC(=O)c2n[nH]c3ccc(-c4cncc(CN5CCCC5)c4)cc23)c1"
experimental_endpoint = "pEC50"
qualifier_operator = "="
reported_measurement = 6.48

[[record]]
smiles_repr = "Nc1cncc(-c2ccc3[nH]nc(-c4cc5cccnc5[nH]4)c3c2)c1"
experimental_endpoint = "pEC50"
qualifier_operator = "="
reported_measurement = 6.99

[[record]]
smiles_repr = "CN(C)CCOc1cncc(-c2ccc3[nH]nc(-c4nc5c(-c6cccs6)cccc5[nH]4)c3n2)c1"
experimental_endpoint = "pEC50"
qualifier_operator = "="
reported_measurement = 5.51

[[record]]
smiles_repr = "CN(C)Cc1cncc(-c2cc3c(-c4cc5c(-c6ccncc6)ccnc5[nH]4)n[nH]c3cn2)c1"
experimental_endpoint = "pEC50"
qualifier_operator = "<"
reported_measurement = 5.00


====

molecular target: Dual specificity tyrosine-phosphorylation-regulated kinase 1A (Homo sapiens); assay: Inhibition of recombinant DYRK1A (unknown origin) using Ser/Thr 18 peptide as substrate incubated for 1 hr in presence of ATP by FRET assay
Simple rule here: EC50 less than 10 nM is 1, otherwise 0.

[[record]]
smiles_repr = "Nc1cncc(-c2ccc3[nH]nc(-c4cc5c(-c6cccnc6)nccc5[nH]4)c3c2)c1"
subject_of_test = "Dual specificity tyrosine-phosphorylation-regulated kinase 1A (Homo sapiens)"
group = 1

[[record]]
smiles_repr = "CC(C)Nc1cncc(-c2ccc3[nH]nc(-c4nc5c(-c6cccnc6)nccc5[nH]4)c3n2)c1"
subject_of_test = "Dual specificity tyrosine-phosphorylation-regulated kinase 1A (Homo sapiens)"
group = 0

[[record]]
smiles_repr = "CN1CCCCN(C)c2nccc3[nH]c(nc23)-c2c[nH]c3ccc(cc23)-c2cncc(c2)C1"
subject_of_test = "Dual specificity tyrosine-phosphorylation-regulated kinase 1A (Homo sapiens)"
group = 1

[[record]]
smiles_repr = "CC(C)N1CCC(Oc2cc(C(=O)Nc3cc4cc(-c5cnn6c5CCNC6)ccc4cn3)ccn2)CC1"
subject_of_test = "Dual specificity tyrosine-phosphorylation-regulated kinase 1A (Homo sapiens)"
group = 0

[[record]]
smiles_repr = "CCNCc1cncc(-c2ccc3[nH]nc(-c4cc5cnccc5[nH]4)c3c2)c1"
subject_of_test = "Dual specificity tyrosine-phosphorylation-regulated kinase 1A (Homo sapiens)"
group = 1

[[record]]
smiles_repr = "CC(C)C(=O)Nc1cncc(-c2ccc3[nH]nc(-c4nc5c(-c6ccccc6F)cncc5[nH]4)c3n2)c1"
subject_of_test = "Dual specificity tyrosine-phosphorylation-regulated kinase 1A (Homo sapiens)"
group = 0

[[record]]
smiles_repr = "CC(C)Nc1cncc(-c2ccc3[nH]nc(-c4nc5c(-c6ccoc6)ccnc5[nH]4)c3n2)c1"
subject_of_test = "Dual specificity tyrosine-phosphorylation-regulated kinase 1A (Homo sapiens)"
group = 0

[[record]]
smiles_repr = "CCNCc1cncc(-c2cc3c(-c4nc5c(-c6ccsc6)nccc5[nH]4)n[nH]c3cn2)c1"
subject_of_test = "Dual specificity tyrosine-phosphorylation-regulated kinase 1A (Homo sapiens)"
group = 1


====

experiment: Effect on Wnt signaling pathway in human SW480 cells harbouring TCF/LEF luciferase reporter gene and SP5-Luc reporter gene incubated for 36 to 48 hrs by luminescence assay; type: cell-based
experimental-endpoint: log10 of EC50 (log10 of the value in nM)

[[record]]
smiles_repr = "CC(C)(C)C(=O)Nc1cncc(-c2ccc3[nH]nc(-c4nc5c(-c6ccc(F)cc6)cncc5[nH]4)c3c2)c1"
reported_measurement = 0.60

[[record]]
smiles_repr = "CN1CCC(Oc2ncc(NC(=O)c3n[nH]c4cc(F)c(-c5cnn(C)c5)cc34)cc2F)CC1"
reported_measurement = 3.06

[[record]]
smiles_repr = "Cc1n[nH]c2ccc(-c3cncc(OC[C@@H](N)Cc4ccccc4)c3)cc12"
reported_measurement = 2.42

[[record]]
smiles_repr = "CN1CCN(c2nccc3[nH]c(-c4n[nH]c5ccc(-c6cncc(NC(=O)c7ccccc7)c6)cc45)cc23)CC1"
reported_measurement = 3.33

[[record]]
smiles_repr = "CCC(=O)Nc1cncc(-c2cc3c(-c4cc5c(-c6cccc(F)c6)nccc5[nH]4)n[nH]c3cn2)c1"
reported_measurement = 2.48

[[record]]
smiles_repr = "Nc1cncc(-c2ccc3[nH]nc(-c4cc5c(-c6ccccn6)ccnc5[nH]4)c3c2)c1"
reported_measurement = 1.35

[[record]]
smiles_repr = "Oc1cncc(-c2ccc3[nH]nc(-c4nc5c(-c6cccc(F)c6)ccnc5[nH]4)c3c2)c1"
reported_measurement = 1.04

